These data points were gathered from patent US20230159510A1.

Recorded measurements of Ki, one per entry
biological target: PRMT5/MEP50 (Homo sapiens, UniProt O14744); assay: MTase-Glo methyl transferase assay, Method A (Histone H4 peptide, 1 µM MTA, 24 h pre-incubation); type: biochemical; set-up: made in house; settings: read-out: PRMT5 MTase Glo Ki (nM, Meth. A)
Sequence (O14744 whole entry): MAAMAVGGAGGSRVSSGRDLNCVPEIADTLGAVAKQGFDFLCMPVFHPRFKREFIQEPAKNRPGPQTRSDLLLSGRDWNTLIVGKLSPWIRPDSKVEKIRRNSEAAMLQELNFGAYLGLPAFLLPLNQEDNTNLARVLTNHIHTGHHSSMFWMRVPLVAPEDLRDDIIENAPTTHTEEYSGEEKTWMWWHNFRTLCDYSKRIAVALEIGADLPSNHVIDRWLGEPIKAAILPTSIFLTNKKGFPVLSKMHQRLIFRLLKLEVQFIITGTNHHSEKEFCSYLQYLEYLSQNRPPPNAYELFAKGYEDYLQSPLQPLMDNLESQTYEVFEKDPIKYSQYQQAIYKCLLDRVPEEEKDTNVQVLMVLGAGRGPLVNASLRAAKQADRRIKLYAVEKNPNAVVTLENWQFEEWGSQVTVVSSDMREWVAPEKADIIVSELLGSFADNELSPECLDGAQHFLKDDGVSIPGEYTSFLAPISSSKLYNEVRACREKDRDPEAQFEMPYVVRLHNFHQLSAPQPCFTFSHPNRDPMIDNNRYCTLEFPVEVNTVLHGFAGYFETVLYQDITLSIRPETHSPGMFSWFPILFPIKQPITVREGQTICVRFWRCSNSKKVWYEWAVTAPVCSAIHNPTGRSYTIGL
Sequence (Q9BQA1 whole entry partner): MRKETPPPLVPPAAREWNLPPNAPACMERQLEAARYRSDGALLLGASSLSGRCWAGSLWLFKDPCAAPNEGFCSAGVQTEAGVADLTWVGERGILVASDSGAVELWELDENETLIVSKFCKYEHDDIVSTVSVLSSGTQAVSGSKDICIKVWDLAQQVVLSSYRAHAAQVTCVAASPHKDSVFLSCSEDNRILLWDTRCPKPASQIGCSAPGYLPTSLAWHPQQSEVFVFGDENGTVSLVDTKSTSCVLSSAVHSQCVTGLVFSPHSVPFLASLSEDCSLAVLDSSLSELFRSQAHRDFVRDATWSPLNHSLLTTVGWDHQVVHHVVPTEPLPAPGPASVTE
Please respond with the number in nM and leave the unit unwritten.

# input What does the data say about its Ki? Entry: Cc1cc2cc(C(=O)N(Cc3cnc(C(F)(F)F)cn3)[C@H](C)c3ccc(F)cn3)ccc2nc1N (single isomer, unassigned)
# output 1.02

Further cases:
# input What does the data say about its Ki? Entry: "Cc1cc2cc(C(=O)N(Cc3ccc(C(F)(F)F)cn3)Cc3ncccc3F)ccc2nc1N"
# output 0.28

# input What does the data say about its Ki? Entry: "Cc1cc2cc(C(=O)N(Cc3ncc(C(F)(F)F)cc3Cl)[C@H](C)c3ncccc3F)ccc2nc1N"
# output 0.27

# input What does the data say about its Ki? Entry: Cc1cc2cc(C(=O)N(Cc3ccc(C(F)(F)F)cn3)[C@@H]3CCCN(C4CC4)C3=O)ccc2nc1N (single isomer, unassigned)
# output 0.29

# input What does the data say about its Ki? Entry: "Cc1cc2cc(C(=O)N(Cc3ccc(C(F)(F)F)cn3)CC(C)C)ncc2nc1N"
# output 0.98
